biological target: UniProt:P31652; assay: Inhibition of [3H]5-HT reuptake at rat SERT expressed in HEK293 cells after 2 mins by liquid scintillation counting; assay type: cell-based
Sequence (P31652 whole entry): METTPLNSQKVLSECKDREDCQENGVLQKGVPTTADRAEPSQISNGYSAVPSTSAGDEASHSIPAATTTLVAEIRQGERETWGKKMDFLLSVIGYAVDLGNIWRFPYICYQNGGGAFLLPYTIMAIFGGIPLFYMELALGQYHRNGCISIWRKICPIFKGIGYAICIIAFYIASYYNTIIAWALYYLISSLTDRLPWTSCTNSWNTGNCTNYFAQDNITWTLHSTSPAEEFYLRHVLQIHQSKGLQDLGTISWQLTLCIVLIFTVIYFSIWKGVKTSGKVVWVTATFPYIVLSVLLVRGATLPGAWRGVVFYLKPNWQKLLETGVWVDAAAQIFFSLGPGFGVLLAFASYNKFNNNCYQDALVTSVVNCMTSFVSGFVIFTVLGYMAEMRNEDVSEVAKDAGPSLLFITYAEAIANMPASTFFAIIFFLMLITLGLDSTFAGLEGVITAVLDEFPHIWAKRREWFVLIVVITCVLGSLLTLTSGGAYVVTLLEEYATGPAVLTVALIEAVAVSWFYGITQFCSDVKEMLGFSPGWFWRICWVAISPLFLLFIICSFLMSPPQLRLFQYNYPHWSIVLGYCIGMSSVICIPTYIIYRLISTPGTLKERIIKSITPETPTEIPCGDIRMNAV
pIC50: −log10 of the molar value.
measure: pIC50

C#CCNC(CC)Cc1ccc(SC)cc1 (centres undefined) :: 6.40
CC(N)Cc1ccc2c(c1)OCO2 (centres undefined) :: 6.00
CSc1ccc(CC(C)NO)cc1 (centres undefined) :: 6.36
CCSc1ccc(CC(CC)NO)cc1 (centres undefined) :: 5.84
CCNC(CC)Cc1ccc(SCC)cc1 (centres undefined) :: 5.74
CC(N)Cc1ccc(SCc2ccccc2)cc1 (centres undefined) :: 6.17
CCCNC(CC)Cc1ccc(SC)cc1 (centres undefined) :: 6.21
CCNC(C)Cc1ccc(SC)cc1 (centres undefined) :: 6.02
CCSc1ccc(CC(C)NO)cc1 (centres undefined) :: 6.20
CCC(Cc1ccc(SC)cc1)NC(C)C (centres undefined) :: 5.71
CONC(C)Cc1ccc(SC)cc1 (centres undefined) :: 6.18
CNC(C)Cc1ccc2c(c1)OCO2 (centres undefined) :: 5.97
CCC(Cc1ccc(SC)cc1)NC1CC1 (centres undefined) :: 6.06
CCC(Cc1ccc(SC)cc1)NC (centres undefined) :: 6.36
CSc1ccc(CC(C)NC(C)C)cc1 (centres undefined) :: 5.73
CC(N)Cc1ccc(Sc2ccccc2)cc1 (centres undefined) :: 4.84
CCSc1ccc(CC(C)N)cc1 (centres undefined) :: 5.85
C#CCNC(C)Cc1ccc(SC)cc1 (centres undefined) :: 6.16
CNC(C)Cc1ccc(SC)cc1 (centres undefined) :: 6.38
CCNC(C)Cc1ccc(SCC)cc1 (centres undefined) :: 6.32
C=CCNC(C)Cc1ccc(SC)cc1 (centres undefined) :: 6.28
CCC(Cc1ccc(SC)cc1)NCCOC (centres undefined) :: 5.55
CC(N)Cc1ccc(SCCN(C)C)cc1 (centres undefined) :: 4.36
CON(C)C(C)Cc1ccc(SC)cc1 (centres undefined) :: 4.60
COc1ccc(CC(C)N)cc1 (centres undefined) :: 6.76
CSc1ccc(CC(C)NCCO)cc1 (centres undefined) :: 6.06
CSc1ccc(CC(C)N(C)O)cc1 (centres undefined) :: 5.73
CCSc1ccc(CC(N)CC)cc1 (centres undefined) :: 5.89
CSc1ccc(CC(C)NC2CC2)cc1 (centres undefined) :: 6.15
CCC(N)Cc1ccc(SC)cc1 (centres undefined) :: 6.21
CCSc1ccc(CC(C)NC)cc1 (centres undefined) :: 6.14
CCNC(CC)Cc1ccc(SC)cc1 (centres undefined) :: 6.08
CCSc1ccc(CC(C)N(C)O)cc1 (centres undefined) :: 5.80
